As shown below, each of these variants has a reported self-cleavage kobs at 40 uM GlcN6P value.
B1: glmS ribozyme (parent)
chain: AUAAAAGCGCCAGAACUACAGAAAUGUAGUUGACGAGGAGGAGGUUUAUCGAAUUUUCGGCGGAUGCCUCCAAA

Variants of: B1
Test: self-cleavage kobs at 40 uM GlcN6P; higher = faster cleavage; RNA array
Conditions: with glucosamine-6-phosphate
Fewer inactive variants are shown than the library holds.
Quantity Kind: self-cleavage kobs at 40 uM GlcN6P

# Mutation Label, Quantity Kind, Observed Measurement
records = [
    ("U65A C71A", "self-cleavage kobs at 40 uM GlcN6P", "5.65e-05 s⁻¹"),
    ("A6U G29U G38A C58A", "self-cleavage kobs at 40 uM GlcN6P", "< 1e-05 s⁻¹"),
    ("A42G U55G G62C", "self-cleavage kobs at 40 uM GlcN6P", "< 1e-05 s⁻¹"),
    ("C10G G37A G66U U69G C71A", "self-cleavage kobs at 40 uM GlcN6P", "< 1e-05 s⁻¹"),
    ("G41A U49C U56A", "self-cleavage kobs at 40 uM GlcN6P", "< 1e-05 s⁻¹"),
    ("A6G G51A", "self-cleavage kobs at 40 uM GlcN6P", "< 1e-05 s⁻¹"),
    ("A52G U54G C61G", "self-cleavage kobs at 40 uM GlcN6P", "< 1e-05 s⁻¹"),
    ("U46A U47C", "self-cleavage kobs at 40 uM GlcN6P", "5.61e-05 s⁻¹"),
    ("A6C A52U G60U", "self-cleavage kobs at 40 uM GlcN6P", "< 1e-05 s⁻¹"),
    ("U65G C67A", "self-cleavage kobs at 40 uM GlcN6P", "7.27e-05 s⁻¹"),
    ("G29U A52U U65A", "self-cleavage kobs at 40 uM GlcN6P", "< 1e-05 s⁻¹"),
    ("G32A G59C", "self-cleavage kobs at 40 uM GlcN6P", "< 1e-05 s⁻¹"),
    ("A6U A33G G41A A64U", "self-cleavage kobs at 40 uM GlcN6P", "< 1e-05 s⁻¹"),
    ("A12C G32A G44C", "self-cleavage kobs at 40 uM GlcN6P", "< 1e-05 s⁻¹"),
    ("U57G C61U", "self-cleavage kobs at 40 uM GlcN6P", "< 1e-05 s⁻¹"),
    ("A12C A64U C68G", "self-cleavage kobs at 40 uM GlcN6P", "< 1e-05 s⁻¹"),
    ("G32U A64G C71U", "self-cleavage kobs at 40 uM GlcN6P", "< 1e-05 s⁻¹"),
    ("G9U G59A", "self-cleavage kobs at 40 uM GlcN6P", "< 1e-05 s⁻¹"),
    ("A14U G44U", "self-cleavage kobs at 40 uM GlcN6P", "< 1e-05 s⁻¹"),
    ("C10A G43A", "self-cleavage kobs at 40 uM GlcN6P", "< 1e-05 s⁻¹"),
    ("U54G C70A", "self-cleavage kobs at 40 uM GlcN6P", "8.02e-05 s⁻¹"),
    ("C11A A36U G37C", "self-cleavage kobs at 40 uM GlcN6P", "< 1e-05 s⁻¹"),
    ("A6G A15C A53G", "self-cleavage kobs at 40 uM GlcN6P", "< 1e-05 s⁻¹"),
    ("G7A C50G", "self-cleavage kobs at 40 uM GlcN6P", "4.24e-05 s⁻¹"),
    ("U30A U55C", "self-cleavage kobs at 40 uM GlcN6P", "0.000194 s⁻¹"),
    ("C67U", "self-cleavage kobs at 40 uM GlcN6P", "0.000527 s⁻¹"),
    ("U49C G59A C67G", "self-cleavage kobs at 40 uM GlcN6P", "< 1e-05 s⁻¹"),
    ("C11A A33G G43U G44A U54C", "self-cleavage kobs at 40 uM GlcN6P", "< 1e-05 s⁻¹"),
    ("G35U A48G", "self-cleavage kobs at 40 uM GlcN6P", "< 1e-05 s⁻¹"),
    ("A14U U54C", "self-cleavage kobs at 40 uM GlcN6P", "0.00021 s⁻¹"),
    ("U46G U69A", "self-cleavage kobs at 40 uM GlcN6P", "6.14e-05 s⁻¹"),
    ("G32U U55A", "self-cleavage kobs at 40 uM GlcN6P", "2.84e-05 s⁻¹"),
    ("G13A U46G", "self-cleavage kobs at 40 uM GlcN6P", "< 1e-05 s⁻¹"),
    ("U31G U55A", "self-cleavage kobs at 40 uM GlcN6P", "0.000446 s⁻¹"),
    ("A39U U65C", "self-cleavage kobs at 40 uM GlcN6P", "8.42e-05 s⁻¹"),
    ("A12U G40U", "self-cleavage kobs at 40 uM GlcN6P", "0.000308 s⁻¹"),
    ("A6C C10U U30G A52G", "self-cleavage kobs at 40 uM GlcN6P", "< 1e-05 s⁻¹"),
    ("G9A U55C C71A", "self-cleavage kobs at 40 uM GlcN6P", "< 1e-05 s⁻¹"),
    ("U49A A52G", "self-cleavage kobs at 40 uM GlcN6P", "< 1e-05 s⁻¹"),
    ("U31G U49C U54A G63C C68G U69G", "self-cleavage kobs at 40 uM GlcN6P", "< 1e-05 s⁻¹"),
    ("C16A U49C C71G", "self-cleavage kobs at 40 uM GlcN6P", "< 1e-05 s⁻¹"),
    ("A6C U31A", "self-cleavage kobs at 40 uM GlcN6P", "< 1e-05 s⁻¹"),
    ("G51A U65A", "self-cleavage kobs at 40 uM GlcN6P", "< 1e-05 s⁻¹"),
    ("C8U G9A C16U C50U A52U", "self-cleavage kobs at 40 uM GlcN6P", "< 1e-05 s⁻¹"),
    ("U31G A48U", "self-cleavage kobs at 40 uM GlcN6P", "< 1e-05 s⁻¹"),
    ("G40A G41C C61G", "self-cleavage kobs at 40 uM GlcN6P", "< 1e-05 s⁻¹"),
    ("U55A C68U", "self-cleavage kobs at 40 uM GlcN6P", "0.000668 s⁻¹"),
    ("U31C C67G", "self-cleavage kobs at 40 uM GlcN6P", "< 1e-05 s⁻¹"),
    ("G29U U55G", "self-cleavage kobs at 40 uM GlcN6P", "4.62e-05 s⁻¹"),
    ("C34A G43C", "self-cleavage kobs at 40 uM GlcN6P", "< 1e-05 s⁻¹"),
    ("C8A U30G", "self-cleavage kobs at 40 uM GlcN6P", "< 1e-05 s⁻¹"),
    ("G59U C68U", "self-cleavage kobs at 40 uM GlcN6P", "< 1e-05 s⁻¹"),
    ("G29U A33U G38C G40A", "self-cleavage kobs at 40 uM GlcN6P", "< 1e-05 s⁻¹"),
    ("G7A G35C G59A C67G", "self-cleavage kobs at 40 uM GlcN6P", "< 1e-05 s⁻¹"),
    ("A42C U49A G63C", "self-cleavage kobs at 40 uM GlcN6P", "< 1e-05 s⁻¹"),
    ("A6G A14U U55G C68G", "self-cleavage kobs at 40 uM GlcN6P", "< 1e-05 s⁻¹"),
    ("A14U G35U U69G", "self-cleavage kobs at 40 uM GlcN6P", "0.000295 s⁻¹"),
    ("U31C G51U", "self-cleavage kobs at 40 uM GlcN6P", "< 1e-05 s⁻¹"),
    ("G7U G38C", "self-cleavage kobs at 40 uM GlcN6P", "< 1e-05 s⁻¹"),
    ("C10U A42U", "self-cleavage kobs at 40 uM GlcN6P", "< 1e-05 s⁻¹"),
    ("A53G C67A", "self-cleavage kobs at 40 uM GlcN6P", "0.000314 s⁻¹"),
    ("G13C U31C C71U", "self-cleavage kobs at 40 uM GlcN6P", "4.32e-05 s⁻¹"),
    ("G43U C70G", "self-cleavage kobs at 40 uM GlcN6P", "< 1e-05 s⁻¹"),
    ("C10A U46G C68G", "self-cleavage kobs at 40 uM GlcN6P", "0.000169 s⁻¹"),
    ("C61G C71G", "self-cleavage kobs at 40 uM GlcN6P", "3.55e-05 s⁻¹"),
    ("A33U U47G", "self-cleavage kobs at 40 uM GlcN6P", "< 1e-05 s⁻¹"),
    ("A14C A53G", "self-cleavage kobs at 40 uM GlcN6P", "0.00012 s⁻¹"),
    ("G7U C10A A15U", "self-cleavage kobs at 40 uM GlcN6P", "< 1e-05 s⁻¹"),
    ("A53G U54G", "self-cleavage kobs at 40 uM GlcN6P", "0.00114 s⁻¹"),
    ("C11A A14U G66U C67A", "self-cleavage kobs at 40 uM GlcN6P", "< 1e-05 s⁻¹"),
    ("A48U C50G C67U", "self-cleavage kobs at 40 uM GlcN6P", "0.000126 s⁻¹"),
    ("G32A C67U C71G", "self-cleavage kobs at 40 uM GlcN6P", "5.63e-05 s⁻¹"),
    ("A64G C71U", "self-cleavage kobs at 40 uM GlcN6P", "0.000158 s⁻¹"),
]
